These data points were gathered from PubChem BioAssay (NCI).

Tested on: IGROV1 ovarian
method: NCI-60 one-dose screen, 48 h
run-conditions: 10 µM unless noted
About 83,000 compounds went through this panel and 20% of them were active in at least one assay; those are over-represented in the sample as a whole. Active and inactive are the calls of the source. Rule for the calls: active = growth percent below 10; inactive = the rest.
Valid outcomes are listed here; reply with one: active, inactive

Sample answers from the record:
compound=O=C(Nc1ccccc1O)c1ccc(NS(=O)(=O)c2cccc3cccnc23)cc1 answer_label=inactive
compound=CN1CCc2c(c3ccccc3c3ccccc23)C1 answer_label=inactive
compound=O=C1C(N2CCOCC2)=Cc2cccc3cccc1c23 answer_label=inactive
compound=COc1ccc(OC2=CC(=O)c3ccc(C)nc3C2=O)cc1 answer_label=inactive
compound="COC1(OC)C2(Cl)C=C(c3ccccc3)C1(Cl)C(Cl)=C2Cl (stereo not drawn)" answer_label=inactive
compound=Cc1nc(-c2ccccc2)cc2c(O)c(C(=O)N/N=C/Cc3ccccc3)[nH]c(=O)c12 answer_label=inactive
compound=COC(=O)c1c2c(c(C)[n+]([O-])c1C)C(=O)C=C(NCc1cccc(Cl)c1)C2=O answer_label=active
compound="CCOC(=O)C1=C(C)N2C(=NC3=C(CCCC/C3=C\\c3ccccc3)C2c2ccccc2)S1 (stereo not drawn)" answer_label=inactive

Which outcome was entered for the compound CCN(CC)c1ccc2c(c1)OS(=O)(=O)N=C2 in this test? inactive

Which outcome was entered for the compound O=C(CC(O)c1ccccc1)Nc1ccccn1 (stereo not drawn) in this test? inactive

Which outcome was entered for the compound COc1cc(C2=NN(c3ccc(S(N)(=O)=O)cc3)C(c3ccc(Cl)cc3)C2)cc(OC)c1OC (stereo not drawn) in this test? inactive

Which outcome was entered for the compound COc1cc(/C=C/C(=O)C2=C(/C=C/c3ccc(O)c(OC)c3)NC(=O)NC2c2ccc(O)c(OC)c2)ccc1O (stereo not drawn) in this test? inactive
